Conditions: PAMPA
Where a SMILES comes first, the peptide text is derived from it. [ ]: non-standard residue; d: D form. dNMeL = CN[C@H](CC(C)C)C(=O)O; NMeV = CN[C@H](C(=O)O)C(C)C; NMeA = CN[C@@H](C)C(=O)O; Nle = CCCC[C@H](N)C(=O)O
value-kind: PAMPA_R3

[[record]]
compound = "CCCC[C@@H]1NC(=O)[C@H]2CCCN2C(=O)[C@H](C(C)C)NC(=O)[C@@H](CC(C)C)N(C)C(=O)[C@H](Cc2ccccc2)NC(=O)[C@H](CC(C)C)NC(=O)[C@@H](CC(C)C)N(C)C(=O)[C@@H]2CCCN2C(=O)[C@@H](CC(C)C)NC1=O [Design D9.40] (cyclo(F[dNMeL]V[dP][Nle][dL]P[dNMeL]L))"
value_kind = "PAMPA_R3"
observed_measurement = "1.63E-07"

[[record]]
compound = "CC(C)C[C@@H]1NC(=O)[C@H]2CCCN2C(=O)[C@@H]2CCCN2C(=O)[C@H](C)N(C)C(=O)[C@@H](C(C)C)NC(=O)[C@H](Cc2ccccc2)NC(=O)[C@H]2CCCN2C(=O)[C@@H]2CCCN2C(=O)[C@@H](CC(C)C)NC1=O [Design D9.20, DLEU PRO DPRO PHE DVAL *ALA PRO DPRO LEU] (cyclo(F[dV][NMeA]P[dP]L[dL]P[dP]))"
value_kind = "PAMPA_R3"
observed_measurement = "BQL"

[[record]]
compound = "CC(C)[C@H]1C(=O)N[C@H](Cc2ccccc2)C(=O)N2CCC[C@H]2C(=O)N[C@H](Cc2ccccc2)C(=O)N2CCC[C@H]2C(=O)N2CCC[C@H]2C(=O)N1C [Design D6.6, PRO PRO *VAL DPHE PRO DPHE] (cyclo([NMeV][dF]P[dF]PP))"
value_kind = "PAMPA_R3"
observed_measurement = "6.73e-06 cm/s"

